Data origin, for the record: patent US20260191981A1

Biological target: T1, biotinylated cTfR1 (Acro Bio p/n TFR-C8249) (cynomolgus monkey, UniProt H9EXL1 89-760 (rhesus entry), biotinylated; site not stated)
T1 construct: Bought reagent of the BLI assay
T1 sequence (chain, as listed by the source): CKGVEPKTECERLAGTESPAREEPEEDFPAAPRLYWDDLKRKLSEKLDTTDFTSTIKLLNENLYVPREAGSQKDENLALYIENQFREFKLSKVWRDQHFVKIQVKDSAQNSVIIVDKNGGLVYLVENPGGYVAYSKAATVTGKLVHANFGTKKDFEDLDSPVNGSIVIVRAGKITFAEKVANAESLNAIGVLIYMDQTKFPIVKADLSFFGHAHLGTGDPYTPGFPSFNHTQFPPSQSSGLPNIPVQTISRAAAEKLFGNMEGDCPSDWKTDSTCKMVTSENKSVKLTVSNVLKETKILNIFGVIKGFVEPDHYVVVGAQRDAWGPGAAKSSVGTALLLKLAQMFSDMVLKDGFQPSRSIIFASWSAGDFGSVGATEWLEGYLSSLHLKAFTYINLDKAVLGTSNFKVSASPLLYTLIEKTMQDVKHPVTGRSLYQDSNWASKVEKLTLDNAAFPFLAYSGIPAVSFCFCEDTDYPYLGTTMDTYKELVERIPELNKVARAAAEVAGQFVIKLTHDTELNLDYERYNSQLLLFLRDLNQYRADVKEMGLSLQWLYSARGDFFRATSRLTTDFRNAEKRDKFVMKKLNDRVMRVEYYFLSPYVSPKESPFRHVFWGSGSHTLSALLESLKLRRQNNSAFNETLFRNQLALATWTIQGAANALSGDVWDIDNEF
Test: BLI, Octet RH16, biotinylated TfR1 on streptavidin sensor; Fab-siRNA conjugate
Catalogue of koff readings, one per entry.
Answer in s⁻¹, number only, no unit symbol.

Some solved cases for reference:
- binder: "Fab0072-siRNA conjugate (Fab, V domains shown, siRNA-linker on a reduced cysteine; chain and residue not stated, also called Fab0072 (BLI conjugate columns)) VH: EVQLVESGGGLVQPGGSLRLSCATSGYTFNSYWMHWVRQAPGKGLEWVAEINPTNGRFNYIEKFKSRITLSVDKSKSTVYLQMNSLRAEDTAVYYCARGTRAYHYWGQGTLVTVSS VL: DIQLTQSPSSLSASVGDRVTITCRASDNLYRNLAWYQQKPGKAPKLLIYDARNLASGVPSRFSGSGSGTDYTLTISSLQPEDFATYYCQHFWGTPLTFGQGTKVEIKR"
  measure unit: "s⁻¹"
  koff: 0.00398
- binder: "Fab0066-siRNA conjugate (Fab, V domains shown, siRNA-linker on a reduced cysteine; chain and residue not stated, also called Fab0066 (BLI conjugate columns)) VH: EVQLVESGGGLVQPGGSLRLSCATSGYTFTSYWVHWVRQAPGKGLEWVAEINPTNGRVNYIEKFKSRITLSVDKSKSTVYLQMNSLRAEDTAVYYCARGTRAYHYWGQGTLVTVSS VL: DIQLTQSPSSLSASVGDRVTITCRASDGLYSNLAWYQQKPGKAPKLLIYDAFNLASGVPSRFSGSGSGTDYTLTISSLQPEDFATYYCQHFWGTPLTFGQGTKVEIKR"
  measure unit: "s⁻¹"
  koff: 0.00335
- binder: "Fab0069-siRNA conjugate (Fab, V domains shown, siRNA-linker on a reduced cysteine; chain and residue not stated, also called Fab0069 (BLI conjugate columns)) VH: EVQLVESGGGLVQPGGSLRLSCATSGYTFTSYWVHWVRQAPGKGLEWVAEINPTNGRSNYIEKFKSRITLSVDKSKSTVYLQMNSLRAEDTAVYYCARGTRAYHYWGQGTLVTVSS VL: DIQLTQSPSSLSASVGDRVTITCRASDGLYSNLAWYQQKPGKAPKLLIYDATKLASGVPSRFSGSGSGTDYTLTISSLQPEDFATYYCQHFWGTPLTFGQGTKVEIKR"
  measure unit: "s⁻¹"
  koff: 0.00245
- binder: "Fab0070-siRNA conjugate (Fab, V domains shown, siRNA-linker on a reduced cysteine; chain and residue not stated, also called Fab0070 (BLI conjugate columns)) VH: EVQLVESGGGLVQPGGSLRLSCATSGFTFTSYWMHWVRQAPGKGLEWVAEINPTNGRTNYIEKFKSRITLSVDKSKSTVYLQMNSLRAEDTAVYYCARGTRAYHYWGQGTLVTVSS VL: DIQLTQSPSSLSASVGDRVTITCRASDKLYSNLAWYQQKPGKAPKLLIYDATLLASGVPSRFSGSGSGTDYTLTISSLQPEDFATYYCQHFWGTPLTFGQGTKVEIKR"
  measure unit: "s⁻¹"
  koff: 0.00413
- binder: "Fab0061-siRNA conjugate (Fab, V domains shown, siRNA-linker on a reduced cysteine; chain and residue not stated, also called Fab0061 (BLI conjugate columns)) VH: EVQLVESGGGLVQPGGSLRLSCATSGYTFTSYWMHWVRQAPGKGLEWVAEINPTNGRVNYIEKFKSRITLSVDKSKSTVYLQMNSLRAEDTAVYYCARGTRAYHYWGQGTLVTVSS VL: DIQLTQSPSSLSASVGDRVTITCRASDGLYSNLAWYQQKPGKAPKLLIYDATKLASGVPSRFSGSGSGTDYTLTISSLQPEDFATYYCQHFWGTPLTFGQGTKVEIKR"
  measure unit: "s⁻¹"
  koff: 0.0017

Data request: Return reported koff; argument: Fab0062-siRNA conjugate (Fab, V domains shown, siRNA-linker on a reduced cysteine; chain and residue not stated, also called Fab0062 (BLI conjugate columns)) VH: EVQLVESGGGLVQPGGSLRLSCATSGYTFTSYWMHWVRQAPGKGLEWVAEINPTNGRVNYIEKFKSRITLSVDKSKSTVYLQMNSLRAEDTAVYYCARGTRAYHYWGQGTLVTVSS VL: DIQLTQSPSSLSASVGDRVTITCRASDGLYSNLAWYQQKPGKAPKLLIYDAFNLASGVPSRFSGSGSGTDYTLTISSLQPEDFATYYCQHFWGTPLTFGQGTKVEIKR
Data returned: 0.00263

Data request: Return reported koff; argument: Fab0002-siRNA conjugate (Fab, V domains shown, siRNA-linker on a reduced cysteine; chain and residue not stated, also called Fab0002 (BLI conjugate columns)) VH: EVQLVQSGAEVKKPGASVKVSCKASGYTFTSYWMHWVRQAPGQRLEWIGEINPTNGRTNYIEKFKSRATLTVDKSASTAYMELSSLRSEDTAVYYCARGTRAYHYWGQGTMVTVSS VL: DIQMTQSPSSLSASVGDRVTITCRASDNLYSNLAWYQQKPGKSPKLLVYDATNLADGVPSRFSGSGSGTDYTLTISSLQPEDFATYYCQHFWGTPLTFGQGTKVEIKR
Data returned: 0.00732
